Each recorded value in this set is attributed to the Deep4Chem optical property database.

Assay: solvent given as SMILES
Conditions: in CC(C)(C)O
property name: emission maximum (nm)

structure smiles	uom	emission maximum
O=C1Nc2ccccc2/C1=C/C(=O)c1ccc(O)cc1	nm	406
CCc1ccc(/C=N/c2cc(C(C)C)c(O)cc2C)cc1	nm	414
Cc1cc(O)c(C(C)C)cc1/N=C/c1ccc(O)cc1	nm	410
Cc1ccc(/C=N/c2cc(C(C)C)c(O)cc2C)cc1	nm	412

* * *

Experiment: solvent given as SMILES
Conditions: in CCO
property name: emission maximum (nm)

Example entries begin here.
structure smiles	emission maximum, nm
Cc1ccc(/C=N/c2cc(C(C)C)c(O)cc2C)cc1	417
N#Cc1c(-n2c3ccccc3c3ccccc32)c(-n2c3ccccc3c3ccccc32)c(-n2c3ccccc3c3ccccc32)c(-n2c3ccccc3c3ccccc32)c1-n1c2ccccc2c2ccccc21	515.31
COC(=O)CN1C(=O)c2cc3ccc(N(C)C)cc3cc2C1=O	584
Cc1nc2c(c[n+]1C)CN1C(=O)N([C@H]3O[C@@H](CO)[C@H](O)[C@@H]3O)C=CC1=N2	417
Oc1ccc(/N=C/c2ccccc2Oc2ccccc2)cc1	415
c1ccc(-c2cc(-c3ccc4ccc5cccc6ccc3c4c56)ccn2)nc1	431
CCNc1ccc(NCC)c2c1C(=O)c1ccccc1C2=O	672

[P] C[N+]1=C(/C=C/C2=C3Oc4c(cc5c6c4CCCN6CCC5)C(c4ccccc4C(=O)O)=C3CCC2)C(C)(C)c2c1ccc1ccccc21
[Q] CN(C)c1c2ccccc2cc2ccccc12
Quick check, higher emission maximum between P and Q ? Respond using the label that marks the chosen record.
P
(P: 763 nm, Q: 389 nm)
